Examples of molecules with documented recovery at 36 d follow.
# test: physchem
# particulars: Recovery under stability condition
// return numeric value only (unit: %, not printed)

# molecule, measure-unit, endpoint-value
data = [
    ("CC(C)NCC(O)COc1cccc2ccccc12 (centres unmarked)", "%", 87.7),
]

Now look at this one.
# input // recovery at 36 d lookup, key: C=C[C@H]1C[N@@]2CC[C@H]1C[C@@H]2[C@@H](O)c1ccnc2ccc(OC)cc12
# output 86.2

====

# test: physchem
# particulars: Recovery under stability condition
metric-name: recovery (%)
// return numeric value only (unit: %, not printed)

# compound, recovery / %
records = [
    ("C=C[C@H]1C[N@@]2CC[C@H]1C[C@@H]2[C@@H](O)c1ccnc2ccc(OC)cc12", 87.5),
]

Now look at this one.
# input // recovery lookup, key: CC(C)NCC(O)COc1cccc2ccccc12 (centres unmarked)
# output 86.5
